# targetOfAssay: TGF-beta1 (hTGF-beta1) (Homo sapiens, UniProt P01137 P01137:279-390)
# Sequence (P01137 279-390, one chain of several): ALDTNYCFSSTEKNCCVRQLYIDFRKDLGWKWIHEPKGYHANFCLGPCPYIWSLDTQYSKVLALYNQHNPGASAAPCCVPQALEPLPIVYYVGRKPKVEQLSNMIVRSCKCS
# experimentNotes: filter; biphasic; Kd1 23±6.4 nM; labelled 30-35 in Table 4 class 7 but sequence is 30-25
# runConditions: tags: R&D Systems; biotinylated form (NFTG0) used for BIAcore; chain copies: 2
pKd: −log10 of the molar value.

binder: 30-25 (ssRNA, 2'-F C and U) RNA: GGGAGGACGAUGCGGUUGGCAUUGAAAGAGGCGUCAUAUGUUCGCCAGACGACUCGCCCGA
pKd: 11.94
